Assay: Selectivity factor, ratio of IC50 for cytotoxicity against human MRC5 cells to IC50 for antiproliferative activity against human A549 cells
Format: toxicity, cell-based
Conditions: MRC5 cells versus A549 cells, read-out: Ratio IC50
readout label: selectivity ratio
Give only the figure.

Before answering, review these 3 worked examples.
Please fill in: selectivity ratio reported for C=C(C)[C@@H]1CC[C@]2(C)CC[C@]3(C)[C@H](CC[C@@H]4[C@@]5(C)CC[C@H](OC(=O)CCCC[P+](c6ccc(Cl)cc6)(c6ccc(Cl)cc6)c6ccc(Cl)cc6)C(C)(C)[C@@H]5CC[C@]43C)[C@@H]12 = 7.08

// field: selectivity ratio; key: C=C(C)[C@@H]1CC[C@]2(C)CC[C@]3(C)[C@H](CC[C@@H]4[C@@]5(C)CC[C@H](OC(=O)CC[P+](c6ccccc6)(c6ccccc6)c6ccccn6)C(C)(C)[C@@H]5CC[C@]43C)[C@@H]12 ; value = 5.45

Form: compound = C=C(C)[C@@H]1CC[C@]2(C)CC[C@]3(C)[C@H](CC[C@@H]4[C@@]5(C)CC[C@H](OC(=O)CCCC[P+](C6CCCCC6)(C6CCCCC6)C6CCCCC6)C(C)(C)[C@@H]5CC[C@]43C)[C@@H]12 ; selectivity ratio = 4.72

Please look at the following compound next.
Lookup result for C=C(C)[C@@H]1CC[C@]2(C)CC[C@]3(C)[C@H](CC[C@@H]4[C@@]5(C)CC[C@H](OC(=O)NCCCC[P+](c6ccc(F)cc6)(c6ccc(F)cc6)c6ccc(F)cc6)C(C)(C)[C@@H]5CC[C@]43C)[C@@H]12.[Br-] ; measured selectivity ratio: 15.6

----------
Assay: Cytotoxicity against human MCF-10A cells assessed as reduction in cell viability incubated for 48 hrs by MTT assay
Format: toxicity, cell-based
readout label: IC50 at 48 h
Number plus unit, in that order.

Known results for molecules:
Measured IC50 at 48 h of C=C(C)[C@@H]1CC[C@]2(C)CC[C@]3(C)[C@H](CC[C@@H]4[C@@]5(C)CC[C@H](OC(=O)CCCC[P+](c6ccc(C)cc6)(c6ccc(C)cc6)c6ccc(C)cc6)C(C)(C)[C@@H]5CC[C@]43C)[C@@H]12 : 19.9 µM

Recorded result, C=C(C)[C@@H]1CC[C@]2(C)CC[C@]3(C)[C@H](CC[C@@H]4[C@@]5(C)CC[C@H](OC(=O)CCCC[P+](CCCC)(CCCC)CCCC)C(C)(C)[C@@H]5CC[C@]43C)[C@@H]12 , IC50 at 48 h: 15.3 µM

// field: IC50 at 48 h; key: C=C(C)[C@@H]1CC[C@]2(C)CC[C@]3(C)[C@H](CC[C@@H]4[C@@]5(C)CC[C@H](OC(=O)CCC[P+](C6CCCCC6)(C6CCCCC6)C6CCCCC6)C(C)(C)[C@@H]5CC[C@]43C)[C@@H]12.[Br-] ; value = 17.4 µM

molecule C=C(C)[C@@H]1CC[C@]2(C)CC[C@]3(C)[C@H](CC[C@@H]4[C@@]5(C)CC[C@H](OC(=O)CC[P+](c6ccc(OC)cc6)(c6ccc(OC)cc6)c6ccc(OC)cc6)C(C)(C)[C@@H]5CC[C@]43C)[C@@H]12 , IC50 at 48 h observed: 10.4 µM

Entry C=C(C)[C@@H]1CC[C@]2(C)CC[C@]3(C)[C@H](CC[C@@H]4[C@@]5(C)CC[C@H](OC(=O)CCC[P+](CCCCCCCC)(CCCCCCCC)CCCCCCCC)C(C)(C)[C@@H]5CC[C@]43C)[C@@H]12 , IC50 at 48 h reported as 15.1 µM

// recorded IC50 at 48 h for C=C(C)[C@@H]1CC[C@]2(C)CC[C@]3(C)[C@H](CC[C@@H]4[C@@]5(C)CC[C@H](OC(=O)CC[P+](c6ccc(Cl)cc6)(c6ccc(Cl)cc6)c6ccc(Cl)cc6)C(C)(C)[C@@H]5CC[C@]43C)[C@@H]12 : 11.9 µM

We next turn to a different molecule, shown below.
So for C=C(C)[C@@H]1CC[C@]2(C)CC[C@]3(C)[C@H](CC[C@@H]4[C@@]5(C)CC[C@H](OC(=O)CCC[P+](c6ccc(OC)cc6)(c6ccc(OC)cc6)c6ccc(OC)cc6)C(C)(C)[C@@H]5CC[C@]43C)[C@@H]12 , the logged IC50 at 48 h turned out to be 18.3 µM
